Field: LD50. Provide a value for each of the compounds that follow.
EXPERIMENT SUMMARY: Acute toxicity (LD50) in male mice
CONDITION CONTEXT: mouse, in vivo, po; male mice

Prompt line: Looking for the measured LD50 of Cc1sc2nc(N3CCNCC3)nc(-c3ccccc3)c2c1C , can you help?
Response line: 1330 mg/kg

Prompt line: Looking for the measured LD50 of Cc1csc2nc(N3CCNCC3)nc(-c3ccccc3)c12 , can you help?
Response line: 275 mg/kg

Prompt line: Looking for the measured LD50 of CN(C)CCC=C1c2ccccc2CCc2ccccc21 [Amitriptyline, reference compound] , can you help?
Response line: 380 mg/kg
